Tested on: 282377-053-R-J1-PDC complex spheroid viability;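 further: spheroids exposed to compounds for seven days; 100% = DMSO vehicle control viability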
test: Anticancer human tumor 282377-053-R-J1-PDC patient-derived colon adenocarcinoma cell line growth inhibition [POLQ]
test_conditions: second compound 10 µM; first compound 0.0316 µM; hits give low values
Procedure: Multicellular complex tumor spheroid response to Polymerase (POL) inhibitors (novobiocin, ART-558, RP6685) in combination with a variety of drugs and investigational agents in selected tumor cell lines The POL inhibitors (novobiocin, ART-558, and RP6685) were evaluated both individually and in combination with standard of care and investigational anticancer small molecules within a complex spheroid model of solid tumors. . […]
quantity_measured: viability, T/C (%)
Answer format: numeric, % implied, no suffix.

Use these answered entries as a reference point.
# compound, viability, T/C [%]
rows = [
    ("C#Cc1c(F)ccc2cc(O)cc(-c3ncc4c(N5CC6CCC(C5)N6)nc(OCC56CCCN5CC(F)C6)nc4c3F)c12 (stereo not given) + Cc1cccc(N(C)C(=O)C2C(O)CCN2c2nc(C)cc(C(F)(F)F)c2C#N)c1", 81.7),
    ("CCc1c2c(nc3ccc(O)cc13)-c1cc3c(c(=O)n1C2)COC(=O)[C@]3(O)CC + COC1C(OC(N)=O)C(O)C(Oc2ccc3c(O)c(NC(=O)c4ccc(O)c(CC=C(C)C)c4)c(=O)oc3c2C)OC1(C)C", 56),
    ("CCc1cc2c(N3CCc4c(cc(Cn5ccnc5)cc4-c4cn(C)nc4C(F)(F)F)C3=O)cc(C)nc2c(OC)n1 + Nc1ccc(C#CCN(C(=O)Cc2ncc(C(F)(F)F)cc2C(F)(F)F)c2ccc(F)cc2)nn1", 108),
    ("CCc1cc2c(N3CCc4c(cc(Cn5ccnc5)cc4-c4cn(C)nc4C(F)(F)F)C3=O)ccnc2c(OC)n1 + Cc1cccc(N(C)C(=O)C2C(O)CCN2c2nc(C)cc(C(F)(F)F)c2C#N)c1", 98.9),
    ("CC1COCCN1c1cc(C2(O)CC3CCC(C2)O3)c2cnn(-c3ccn[nH]3)c2n1 (stereo not given) + Nc1ccc(C#CCN(C(=O)Cc2ncc(C(F)(F)F)cc2C(F)(F)F)c2ccc(F)cc2)nn1", 97.3),
]

Prompt: Quick one: viability, T/C for CC1COCCN1c1cc(C2(O)CC3CCC(C2)O3)c2cnn(-c3ccn[nH]3)c2n1 (stereo not given) + Cc1cccc(N(C)C(=O)C2C(O)CCN2c2nc(C)cc(C(F)(F)F)c2C#N)c1 ?
Completion: 76

Prompt: Quick one: viability, T/C for O=C(Nc1ccc(O)c(NS(=O)(=O)c2ccc(F)cc2)c1)c1ccc(-c2ccccc2)cc1 + Nc1ccc(C#CCN(C(=O)Cc2ncc(C(F)(F)F)cc2C(F)(F)F)c2ccc(F)cc2)nn1 ?
Completion: 124

Prompt: Quick one: viability, T/C for Nc1ccn(C2OC(CO)C(O)C2(F)F)c(=O)n1 (stereo not given) + COC1C(OC(N)=O)C(O)C(Oc2ccc3c(O)c(NC(=O)c4ccc(O)c(CC=C(C)C)c4)c(=O)oc3c2C)OC1(C)C ?
Completion: 90.2
